# Test: Population pharmacokinetics, plasma total irinotecan and SN-38 (HPLC, NONMEM), first course
# Type: in vivo
# Measurement parameters: human, iv, arm C, 250 mg m^−2 90-min i.v. infusion, N=30, mean±s.d.

Compound structure string: CCc1c2c(nc3ccc(OC(=O)N4CCC(N5CCCCC5)CC4)cc13)-c1cc3c(c(=O)n1C2)COC(=O)[C@]3(O)CC
Unit of measure: µM·h
AUC: 32.7

----------
# Test: Population pharmacokinetics, plasma total irinotecan and SN-38 (HPLC, NONMEM), first course
# Format: in vivo
# Measurement parameters: human, iv, arm A, 350 mg m^−2 90-min i.v. infusion, N=30, mean±s.d.

Compound: CCc1c2c(nc3ccc(OC(=O)N4CCC(N5CCCCC5)CC4)cc13)-c1cc3c(c(=O)n1C2)COC(=O)[C@]3(O)CC [irinotecan]
Cmax / µM: 7.91

----------
# Test: Population pharmacokinetics, plasma total irinotecan and SN-38 (HPLC, NONMEM), first course
# Type: in vivo
# Measurement parameters: human, iv, arm B, 125 mg m^−2 90-min i.v. infusion, N=28, mean±s.d.

Compound structure string: CCc1c2c(nc3ccc(OC(=O)N4CCC(N5CCCCC5)CC4)cc13)-c1cc3c(c(=O)n1C2)COC(=O)[C@]3(O)CC
AUC / µM·h: 14.6

----------
# Test: Population pharmacokinetics, plasma total irinotecan and SN-38 (HPLC, NONMEM), first course
# Format: in vivo
# Measurement parameters: human, iv, arm A, 350 mg m^−2 90-min i.v. infusion, N=30, mean±s.d.
Endpoint label: AUC (µM·h)

Compound: CCc1c2c(nc3ccc(OC(=O)N4CCC(N5CCCCC5)CC4)cc13)-c1cc3c(c(=O)n1C2)COC(=O)[C@]3(O)CC [irinotecan]
Unit of measure: µM·h
Readout number: 47.8

----------
# Test: Population pharmacokinetics, plasma total irinotecan and SN-38 (HPLC, NONMEM), first course
# Assay type: in vivo
# Measurement parameters: human, iv, arm B, 125 mg m^−2 90-min i.v. infusion, N=28, mean±s.d.

Compound structure string: CCc1c2c(nc3ccc(OC(=O)N4CCC(N5CCCCC5)CC4)cc13)-c1cc3c(c(=O)n1C2)COC(=O)[C@]3(O)CC
Unit of measure: µM
Cmax: 2.62
